- System: UM-UC-3 (bladder)
- EXPERIMENTAL_PROTOCOL: Cell proliferation assay (CellTiter-Glo, 3 days), single agent
- Assay type: cell-based
- CONDITION_NOTES: 3 days treatment; read-out: Absolute IC50
RECORDED_METRIC: IC50 (nM)

INSERT INTO assay_data (compound, unit_symbol, reported) VALUES
  ('N.N.[Cl][Pt][Cl] [Cisplatin, reference compound]', 'nM', 1860);

---

- Test system: NCI-H23 (Lung)
- EXPERIMENTAL_PROTOCOL: Cell proliferation assay (CellTiter-Glo, 3 days), single agent
- Format: cell-based
- CONDITION_NOTES: 3 days treatment; read-out: Absolute IC50
RECORDED_METRIC: IC50 (µM)

INSERT INTO measurements (molecule, reported) VALUES
  ('N.N.[Cl][Pt][Cl] [Cisplatin, reference compound]', 3.58);

---

- Test system: SW1463 (rectum)
- EXPERIMENTAL_PROTOCOL: Cell proliferation assay (CellTiter-Glo, 3 days), single agent
- Format: cell-based
- CONDITION_NOTES: 3 days treatment; read-out: Absolute IC50
RECORDED_METRIC: IC50

INSERT INTO results (compound, tested_system, recorded_metric, reported) VALUES
  ('N.N.[Cl][Pt][Cl] [Cisplatin, reference compound]', 'SW1463 (rectum)', 'IC50', '12.2 µM');

---

- Test system: UM-UC-3 (bladder)
- EXPERIMENTAL_PROTOCOL: Cell proliferation assay (CellTiter-Glo, 3 days), single agent
- Type: cell-based
- CONDITION_NOTES: Homo sapiens, UMUC3, 72 h, read-out: Absolute IC50 (μM)
RECORDED_METRIC: IC50

INSERT INTO measurements (smiles_representation, recorded_metric, reported) VALUES
  ('C=CC(=O)NCC(=O)N1CCN(Cc2cc3c(N4CCOCC4)nc(-c4cnc(NC(=O)OC)cc4C(F)(F)F)nn3c2)CC1', 'IC50', '> 10 µM');

---

- Tested on: HCC44 (Lung)
- EXPERIMENTAL_PROTOCOL: Cell proliferation assay (CellTiter-Glo, 3 days), single agent
- Assay type: cell-based
- CONDITION_NOTES: 3 days treatment; read-out: Absolute IC50
RECORDED_METRIC: IC50

INSERT INTO assay_data (compound, tested_system, recorded_metric, reported) VALUES
  ('N.N.[Cl][Pt][Cl] [Cisplatin, reference compound]', 'HCC44 (Lung)', 'IC50', '7.96 µM');
